// data source = PubChem BioAssay

assayed_target: Alpha-2C adrenergic receptor (Homo sapiens) (UniProt P18825)
Sequence (P18825 whole entry, looked up): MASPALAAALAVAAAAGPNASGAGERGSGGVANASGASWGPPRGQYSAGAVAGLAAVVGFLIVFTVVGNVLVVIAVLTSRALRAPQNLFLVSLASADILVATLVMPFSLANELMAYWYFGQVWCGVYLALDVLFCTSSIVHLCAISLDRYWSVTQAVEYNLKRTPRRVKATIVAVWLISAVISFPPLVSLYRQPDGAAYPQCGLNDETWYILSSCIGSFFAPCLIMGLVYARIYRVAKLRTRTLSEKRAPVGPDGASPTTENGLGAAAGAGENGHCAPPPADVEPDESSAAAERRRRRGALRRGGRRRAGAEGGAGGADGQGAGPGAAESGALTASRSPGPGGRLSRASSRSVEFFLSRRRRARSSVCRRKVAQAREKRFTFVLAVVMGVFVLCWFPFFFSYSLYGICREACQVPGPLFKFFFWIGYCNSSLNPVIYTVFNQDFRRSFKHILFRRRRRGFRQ
protocol_details: modulators of alpha2C/GIRK thallium flux, primary screen, cell-based, HEK293 alpha2C/GIRK1/2 (AID 624);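 further: slope of fluorescence ratio to pre-addition baseline per second over 15 to 24 s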
test_context: thallium flux BTC fluorescence, at 10 µM, actives lie on both sides
Activity calls are given as the source filed them.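 How the source made its calls: active means fluorescence slope after compound addition differing from the mean of all screened samples at 99.7% confidence, in either direction; inactive means the rest.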
Your response should consist of one outcome taken from y = active, n = inactive

Example results:
Cc1nc(NCCN)c(C#N)c2c1COC(C)(C)C2 | n
CCCC(=O)Nc1ccc(OCC(O)CNC(C)C)c(C(C)=O)c1 (stereo unspecified) | n

How was "O=C(NCc1ccco1)c1cnn2c(C(F)(F)F)cc(-c3ccco3)nc12" classified in this test?
n

I'd appreciate the recorded outcome for "COC(=O)CCC(=O)CN" from this test.
n

Record request — test call for "CCCCCC#CCC#CCC#CCC#CCCCC(=O)O"
n

Fill in: this test's call for "COc1cc(NS(=O)(=O)c2ccc(N)cc2)nc(OC)n1" is ___
n

Which outcome was entered for the compound "CCCCNc1cc(C(=O)O)cc(S(N)(=O)=O)c1Oc1ccccc1" in this test?
n

Please state the recorded outcome for this compound: Cc1nn(-c2cccc(Cl)c2)c2c1C(c1ccncc1)C(C#N)=C(N)O2 (stereo unspecified)
n

Short answer needed: outcome of this test for CCOC(=O)C1=C(c2ccccc2)NC(SCC(=O)Nc2ccccc2C)=C(C#N)C1c1ccco1 (stereo unspecified) ?
n

Entry "O=C(Nc1nc(=O)c2ccccc2s1)c1ccccc1" : call = ?
y

Hey, what did the test say about CCOc1cccc(C2C(C#N)=C(N)Oc3cc(C)oc(=O)c32)c1OCC (stereo unspecified) ?
n

###

protocol_details: DUSP6 inhibitors restoring Erk phosphorylation by chemical complementation, primary imaging in DUSP6-transfected HeLa (AID 609)
test_context: HeLa MKP-3 transfected, phospho-Erk imaging KS statistic; measured here: cell density z-score; at 10 µM; cells stimulated with TPA for 15 min
readout_kind: z-score
Numbers only.

// below: answered compounds
CN1CCN(CCC(=O)N2c3ccccc3Sc3ccc(Cl)cc32)CC1 | 0.831
CCCOc1cccc(-c2nnc(N)s2)c1 | 0.352
O=C(NCc1ccco1)c1cnn2c(C(F)(F)F)cc(-c3ccco3)nc12 | -0.634
COC(=O)c1ccc(C2NC(C(=O)O)CS2)cc1 (stereo not given) | -0.228

I have 2 compounds here; please give me z-score for each one.
1. Nc1nonc1OCCc1ccccc1
2. OCCNc1nc(-c2ccccc2)c2ccccc2n1

1. 0.698
2. -0.162

###

protocol_details: inhibitors of E-selectin induction by TNFa, primary screen, imaging, HUVEC, immunofluorescence, MLSMR starter and 10KST1 sets (AID 487);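 further: 100% = median nuclei count of all wells on the same plate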
test_context: HUVEC TNFalpha-induced E-selectin immunofluorescence imaging, at 2 µM; measured here: cell number, toxicity
readout_kind: nuclei count (%)
Numbers only, in %.

Examples from the recorded data:
C=CCn1c(N)c(C(=O)OC(C)(C)C)c2nc3ccccc3nc21 | 124
COC(=O)C1=C(C)N=C2SC(C)C(=O)N2C1c1ccc(C(=O)OC)cc1 (configuration not stated) | 164
Cc1cc(=O)[nH]c(SCC(=O)c2ccccc2)c1C#N | 168
CSC(=Nc1ccccc1)C1=C(O)COC1=O | 139
CCOc1cccc(-c2nnc3sc(C4CCCCC4)nn23)c1 | 160
CC(=O)Nc1cnc2ccccc2n1 | 160

Okay, next one:
The measured nuclei count associated with "COC(=O)CCC(=O)CN" reads 108

###

protocol_details: DUSP6 inhibitors restoring Erk phosphorylation by chemical complementation, primary imaging in DUSP6-transfected HeLa (AID 609)
test_context: HeLa MKP-3 transfected, phospho-Erk imaging KS statistic; measured here: cell density z-score; at 10 µM; cells stimulated with TPA for 15 min
readout_kind: z-score
Answers are plain numbers.

C=CCOC(=O)C1=C(C)OC(N)=C(C#N)C1c1ccoc1 (stereo unspecified) | -0.735
COC(=O)CCc1c(C)[nH]c(C(=O)OCc2ccccc2)c1C | -1.2
CC(C)Oc1ccc2c(=O)c(-c3ccccc3)coc2c1 | -1.12
CN(C)CC(O)COc1cccc(OCC(O)CN(C)C)c1 (stereo unspecified) | -1.38
CC1=C(C)C(=O)C(CCCCC#CCCCC#CCO)=C(C)C1=O | 0.752

Query compound follows.
Lookup result for O=C(NCCCn1ccnc1)C(Cc1ccccc1)N1C(=O)c2ccccc2C1=O (stereo unspecified) ; measured z-score: 0.63

###

protocol_details: inhibitors of mutant huntingtin aggregation, primary screen, imaging, exon1htt(103Q)mCFP cells, high-content imaging (AID 483);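 further: compound exposure lasted 3 days before fixation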
test_context: exon1htt(103Q)mCFP cell line, aggregate imaging, at 2 µM; stronger effect = higher value
I'd be grateful if you could share measured inhibition of aggregation for these entries.
One number for each entry, in %.

Known results for compounds:
N#C/C(C(=O)NCc1ccco1)=C1/SC(Cc2ccc(F)cc2)C(=O)N1c1ccccc1 (stereo not given) | -63.4
COc1ccc2c(c1OC)C(=O)O[C@@H]2[C@H]1c2c(cc3c(c2OC)OCO3)CCN1C | 0.2
CC[C@]1(O)CC2CN(CCc3c([nH]c4ccccc34)[C@@](C(=O)OC)(c3cc4c(cc3OC)N(C=O)[C@H]3[C@@](O)(C(=O)OC)[C@H](OC(C)=O)[C@]5(CC)C=CCN6CC[C@]43[C@@H]65)C2)C1 (stereo not given in full) | -69.9
COc1ccccc1OCC(O)COC(N)=O (stereo not given) | -4.9
Cc1ccc(/C=N/n2nnnc2N)o1 | 3.9

For the 4 compounds below, give their inhibition of aggregation values.
1. O=C1OC(c2ccc(O)cc2)(c2ccc(O)cc2)c2ccccc21
2. CC(=O)OCC(=O)[C@H]1CC[C@H]2[C@@H]3CCC4=CC(=O)CC[C@]4(C)[C@H]3CC[C@]12C
3. CCC(=O)Oc1ccc(/C(CC)=C(\CC)c2ccc(OC(=O)CC)cc2)cc1
4. CC(=O)C1=C(NC(=O)c2ccccc2F)C[C@@H]2[C@H]1C2(C)C

1. 4.4
2. -27.4
3. 3.5
4. -2.1

# return inhibition of aggregation for each item in the list
1. N#Cc1nc(COc2ccc(Br)cc2)oc1N1CCCC1
2. OC(CCN1CCCC1)(c1ccccc1)C1CCCCC1 (stereo not given)
3. C/C(=C\C(=O)O)CC(=O)O
4. Brc1cccc(-c2cnc3n2CCCCC3)c1
5. COc1ccc(C2/C(=C(/O)c3ccccc3)C(=O)C(=O)N2c2ncccn2)cc1OC (stereo not given)
6. CC(Cc1ccc(O)c(O)c1)C(C)Cc1ccc(O)c(O)c1 (stereo not given)
7. O=C(NC1CCS(=O)(=O)C1)N1CCCCC1 (stereo not given)
8. CC(C)[N+](C)(CCOC(=O)C1c2ccccc2Oc2ccccc21)C(C)C

1. -13.8
2. -8.9
3. 25.8
4. 5.1
5. 2.3
6. -17.2
7. -3.3
8. -28.8

###

protocol_details: DUSP6 inhibitors restoring Erk phosphorylation by chemical complementation, primary imaging in DUSP6-transfected HeLa (AID 609)
test_context: HeLa MKP-3 transfected, phospho-Erk imaging KS statistic; measured here: nuclear c-Myc green intensity z-score; at 10 µM; cells stimulated with TPA for 15 min
Tag: 1 (yes) if measured z-score is not below -0.4, 0 (no) if it is.

Record excerpt, results attached:
Cc1oncc1C(=O)Nc1ccc(C(F)(F)F)cc1 | 1 (yes)
N#CC12CCCCC1CC1CCCCC1(C#N)N2Cc1cccnc1 (stereo not given) | 0 (no)
CC(=O)O[C@H]1C[C@@H]2CC[C@@H]3[C@H](CC[C@@]4(C)[C@H]3C[C@H]([N+]3(C)CCCCC3)[C@@H]4OC(C)=O)[C@@]2(C)C[C@@H]1[N+]1(C)CCCCC1 | 1 (yes)
COc1ccc(-n2ccc(=O)c3c2CCCC3=O)cc1 | 1 (yes)

Field: next molecule
Check the entry "Nc1c(Br)cc2oc(-c3ccccc3)nc2c1Br" : does z-score equal or exceed -0.4?
1 (yes)

###

Field: inhibition. Provide a value for each of the compounds that follow.
protocol_details: inhibitors of Chlamydomonas gravitaxis, primary screen, whole organism, Chlamydomonas reinhardtii, WT vs cilia-less mutant, absorbance, 96-well (AID 463189);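 further: 0% = wild type cc124 cells in DMSO and 100% = ciliumless bld1 mutant cells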
test_context: OD600 absorbance, 2 days, at 10 µM, stronger effect = higher value
Active and inactive are the calls of the source.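 The calls were made as follows: active = inhibition at or above 50% relative to wild type and mutant plate controls; inactive = inhibition below 50%.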

The examples below pair each entry with its known result.
N#CCCSc1nc(N2CCOCC2)c2c(c1C#N)CCCC2 | -11.5% (inactive)
COC(=O)/C(=C1/Oc2cc(C)oc(=O)c2S1)C(F)(F)F | 5.01% (inactive)
CC(C)Cc1nc2n[nH]c(N)c2c2c1CCC2 | 8.43% (inactive)

Please report inhibition for every entry that follows.
1. C[C@]12CC[C@@H]3c4ccc(O[C@@H]5O[C@H](C(=O)O)[C@@H](O)[C@H](O)[C@H]5O)cc4CC[C@H]3[C@@H]1C[C@@H](O)[C@@H]2O
2. Clc1ccccc1-c1nn2c(-c3ccccn3)nnc2s1

["-2.21% (inactive)", "48.8% (inactive)"]

Report inhibition for each item below.
1. COc1cccc(N2CCN(C3CC(=O)N(c4cccc(Cl)c4)C3=O)CC2)c1 (stereo unspecified)
2. Clc1ccc(-c2nnc3sc(Cc4cccs4)nn23)cc1
3. CC(Sc1nc(N2CCCCC2)c2c(c1C#N)CCCC2)C(=O)O (stereo unspecified)
4. COC(=O)C1=C(C)N=C2SC(C)C(=O)N2C1c1ccc(C(=O)OC)cc1 (stereo unspecified)
5. O=C(O)CC(NCc1ccco1)C(=O)OCCc1ccccc1 (stereo unspecified)
6. Cc1cc(C)n2c3c(c(C#N)c2n1)CC(C)(C)OC3

["-11.3% (inactive)", "19.8% (inactive)", "-8.39% (inactive)", "1.12% (inactive)", "32.9% (inactive)", "14.5% (inactive)"]
